System: c-Abl (mouse);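 further: 11-residue human phosphosite peptides and single-mutation variants displayed on the E. coli surface, counted by deep sequencing, each peptide's frequency after selection divided by its frequency in the unselected input library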;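 further: frequency after pTyr selection over input frequency; kinase dosed for 20-30% of maximal phosphorylation in three min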
Experiment: phosphorylation enrichment, bacterial display (enrichment ratio); higher = better substrate or ligand; peptides without Tyr show the background
measured-attribute: phosphorylation enrichment
Would you mind answering with just the numeric figure?

State its phosphorylation enrichment on c-Abl (mouse): GTHCHYKAPIV [FZD9_Y569_T573I]
3.44

What do you get for KPEKTYGLRKE [CEP43_Y267] ?
0.782

What do you get for KILPEYLSNWT [AIFM1_Y347] ?
0.677

What do you get for GIMEEYQLPFF [BMPR1A_Y453_V450M_YF] ?
2.27

What do you get for KLPFPYDDPFS [GPX2_Y127_YF] ?
1.16

What do you get for PARLEYCENEK [IRS1_Y46_Y47C] ?
1.08

What do you get for PEAALYGRFTI [FYN_Y440] ?
2.83
